assay: qHTS Validation assay for Inhibitors of Plasmodium falciparum Dd2 growth in vitro; further: nearly all actives have a fitted effect of over 70% in size; details: P. falciparum Dd2 in RBCs, SYBR Green growth, 72 h; series mostly up to 28.7 µM
Screen size: about 4,100 compounds; about 1,600 (39%) were called active. Inconclusive results (about 25%) are left out. The call rests on the fitted dose curve; in most records, active means well fitted inhibition curve with a large enough effect; inconclusive means small, poorly fitted or top-dose-only effect; inactive means no such curve, though single readings can be large or run the other way. This is one part of the list.
Allowed answers: active, inactive

CC(C(=O)NC1CCCC1)N1CCN(S(=O)(=O)c2ccc(C(C)(C)C)cc2)CC1 (stereo unspecified)    active
Cc1cn2nc(C(=O)N3CCC(C(=O)NCCc4ccccc4)CC3)cc2c(=O)[nH]1    inactive
CC(C)N1CCC(NC(=O)NC2CCCCC2)CC1    inactive
Cc1cc(Cl)c(S(=O)(=O)N2CCN(c3ccccn3)CC2)cc1OCC(=O)NC1CCCCC1    active
O=C(Nc1ccccc1F)N1CCCCCC1c1nc(-c2cccnc2)no1 (stereo unspecified)    inactive
Cc1nc(-c2cccc(Cl)c2)n(CC(=O)NCc2ccc(F)cc2)c(=O)c1CCO    inactive
CC(C)(C)c1cnc([C@@H]2COCCN2Cc2ccccc2O)[nH]1    active
Cc1ccc(S(=O)(=O)N2CCC(C(=O)NC3CCCC3)CC2)cc1Cl    inactive

Lookup: In this assay, the call recorded for CNC(=O)[C@H]1C[C@H](Oc2cccnc2)CN1S(=O)(=O)Cc1ccccc1F was what?
Found: inactive

Lookup: Same for Cc1noc(CN(C)C(=O)C2C3C(=O)N(Cc4ccc(C)c(C)c4)C[C@@]34C=C[C@@H]2O4)n1 (stereo partly specified)
Found: inactive

----------
assay: qHTS Validation assay for Inhibitors of Plasmodium falciparum Dd2 growth in vitro; further: nearly all actives have a fitted effect of over 70% in size; conditions: P. falciparum Dd2 in RBCs, SYBR Green growth, 72 h; series mostly up to 28.7 µM
About 1,600 (39%) of roughly 4,100 compounds were called active. Not shown: some 25% with an inconclusive outcome. Calls follow the shape of the dose curve; as a rule, active = well fitted inhibition curve with a large enough effect; inconclusive = small, poorly fitted or top-dose-only effect; inactive = no such curve, though single readings can be large or run the other way. Some of the results follow.
Allowed answers: True for active, False for inactive

Would you please look over these solved cases?
CCc1noc(-c2ccn3c(CNC(=O)COc4cccc(C)c4)nnc3c2)n1    False
CCCCNC(=O)c1cccc2c1CCN2S(=O)(=O)c1cccc(C)c1    False
Cc1noc(C)c1-c1cc2c(cc(C)n2CCN(C)C)c(-c2cccc(O)c2)n1    True
CCOc1ccccc1C(=O)N1CCN(C(=O)c2nnn3c2COC(c2ccccc2)C3)CC1 (stereo not given)    True
CC(C)c1cccc(NC(=O)C2CCN(C(=O)c3ncn4c3COC(c3ccccc3)C4)CC2)c1 (stereo not given)    False

Lookup: In this assay, the call recorded for CCC(=O)N1CCc2cc(S(=O)(=O)CCC(=O)NCc3ccc(OC)cc3)ccc21 was what?
Found: False

Lookup: Same for CC(C)(C)NC(=O)C1CCCN(C2CCN(C3Cc4ccccc4C3)CC2)C1 (stereo not given)
Found: False

Lookup: Same for CCN(CC)CCNC(=O)c1ccc(NC(=O)c2cccc(S(=O)(=O)N3CCc4ccccc43)c2)cc1
Found: True

Lookup: Same for CCC(=O)N1CCc2cc(S(=O)(=O)NCCC(=O)Nc3ccc(OC)c(Cl)c3)ccc21
Found: False

Lookup: Same for CCC(=O)N1CCc2cc(Br)cc(S(=O)(=O)N3CCCC(C(=O)NC(C)(C)C)C3)c21 (stereo not given)
Found: True

Lookup: Same for Cc1ccccc1N(C(=O)c1snc(C(N)=O)c1N)C(C(=O)NCC1CCCO1)c1ccc(N(C)C)cc1 (stereo not given)
Found: True

Lookup: Same for CCC(=O)N1CCc2cc(Br)cc(S(=O)(=O)N3CCCCC3CC)c21 (stereo not given)
Found: True

Lookup: Same for COc1cccc(-c2nc(-c3c(C)noc3C)cc3c2cc(C)n3CCN(C)C)c1
Found: True
